Tested on: MDA-MB-468 breast
Test: NCI tumour cell line growth inhibition, 48 h; in the data active = GI50 below about 0.43 µM; inactive = the rest
Outcomes: active, inactive

molecule: COc1cc(/C=C/C(=O)c2cccc(-n3cc(-c4ccccc4)[nH]c3=O)c2)ccc1O
category-label: inactive
--
molecule: O=C(NCCc1nccs1)c1cnc2c(S)cccc2c1
category-label: inactive
--
molecule: Cc1nc2sc(C(=O)Nc3cccc4c3OCCO4)c(N)c2cc1C(C)O (centres undefined)
category-label: inactive
--
molecule: NC(=O)c1c(NC(=O)c2ccc(C(F)(F)F)cc2Cl)sc2c1CCC(=O)C2
category-label: active
--
molecule: O=[N+]([O-])c1cc2c(ccc3ccccc32)o1
category-label: active
--
molecule: COC(=O)c1ccc(C)cc1C1CN=NC12Cc1c(C)cccc1C2=O (centres undefined)
category-label: inactive
--
molecule: Cc1cc(N)c2cc(NC(=O)/C=C\c3ccccc3Cl)ccc2n1
category-label: active
--
molecule: CC(=O)OC1C(C)OC(Oc2c(-c3ccc(O)cc3)oc3cc(O)cc(O)c3c2=O)C(O)C1OC(C)=O (centres undefined)
category-label: inactive
--
molecule: COc1ccc(/C(=N/O)c2cc(F)c(F)c(OC)c2F)cc1O
category-label: inactive

###

Tested on: MDA-MB-468 breast
Assay: NCI tumour cell line growth inhibition, 48 h
Classification field: 1 = TGI at or over 10 µM; -1 = TGI under 10 µM.

compound: COc1cc(/C=C/C(=O)c2cccc(-n3cc(-c4ccccc4)[nH]c3=O)c2)ccc1O
category-label: 1

compound: N#Cc1c(NC(=O)c2ccc(C(O)(C(F)(F)F)C(F)(F)F)cc2)sc2c1CCC(=O)C2
category-label: -1

compound: C=CC(=O)N1CCN(c2nc(OC[C@@H]3CCCN3C)nc3c(F)c(-c4nc(N)cc(C)c4C(F)(F)F)c(Cl)cc23)[C@@H](C)C1
category-label: -1

compound: CC1=C(C(=O)Nc2cc(F)c(F)cc2F)C(c2ccc(N(C)C)cc2)C(C(=O)Nc2cc(F)c(F)cc2F)=C(C)N1
category-label: 1

compound: O=C(/C=C/c1cccc(Cl)c1)c1ccccc1
category-label: 1

compound: COc1cccc(C2=C(c3cn(C)c4c(C)cccc34)C(=O)NC2=O)c1
category-label: 1

compound: O=C1c2c[n+](Cc3ccccc3)ccc2-c2nc3ccccc3c3ccnc1c23
category-label: -1

compound: Nc1ncnc2c1ncn2C1OC(F)(COS(N)(=O)=O)C(O)C1O (stereo not given)
category-label: 1

compound: O=C1C=CC(=O)N1c1ccc2ccccc2c1
category-label: 1

compound: Cc1nc2ccccc2c(/C=C/c2ccc(C(F)(F)F)cc2)c1C(=O)/C=C/c1ccccc1
category-label: -1
